Data origin: the supplement of paper PMC11061612

Test system: CML-T1 (Chronic Myelogenous Leukemia);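 also: after 72 h of two-drug dosing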
Assay: Bliss excess, mean over the matrix (fraction); higher = more synergy
Label scheme for Bliss excess: lower than 0.006 is F, 0.006 and above is T.

Observe how each entry below is paired with its result.
molecule | class-label
C=CCn1c(=O)c2cnc(Nc3ccc(N4CCN(C)CC4)cc3)nc2n1-c1cccc(C(C)(C)O)n1 [AZD1775] + CCc1c2c(nc3ccc(O)cc13)-c1cc3c(c(=O)n1C2)COC(=O)[C@]3(O)CC [SN-38] (first compound max 1 µM, partner max 0.3 µM) | F
CC1(C)CCC(CN2CCN(c3ccc(C(=O)NS(=O)(=O)c4ccc(NCC5CCOCC5)c([N+](=O)[O-])c4)c(Oc4cnc5[nH]ccc5c4)c3)CC2)=C(c2ccc(Cl)cc2)C1 [Venetoclax] + C[C@@H](Nc1cc(F)cc(F)c1)c1cc(C(=O)N(C)C)cc2c(=O)cc(N3CCOCC3)oc12 [AZD8186] (first compound max 1 µM, 7x7, partner max 3 µM) | F
CC(=O)Nc1cccc(-n2c(=O)n(C3CC3)c(=O)c3c(Nc4ccc(I)cc4F)n(C)c(=O)c(C)c32)c1 [Trametinib] + Cc1nc(-c2cn3c(n2)-c2ccc(-c4cnn(C(C)(C)C(N)=O)c4)cc2OCC3)n(C(C)C)n1 [Taselisib] (first compound max 1 µM, 7x7, partner max 10 µM) | T
CC1(C)CCC(CN2CCN(c3ccc(C(=O)NS(=O)(=O)c4ccc(NCC5CCOCC5)c([N+](=O)[O-])c4)c(Oc4cnc5[nH]ccc5c4)c3)CC2)=C(c2ccc(Cl)cc2)C1 [Venetoclax] + CS(=O)(=O)CCNCc1ccc(-c2ccc3ncnc(Nc4ccc(OCc5cccc(F)c5)c(Cl)c4)c3c2)o1 [Lapatinib] (first compound max 1 µM, 7x7, partner max 10 µM) | T
CS(=O)(=O)CCNCc1ccc(-c2ccc3ncnc(Nc4ccc(OCc5cccc(F)c5)c(Cl)c4)c3c2)o1 [Lapatinib] + NC1(c2ccc(-c3nc4ccn5c(=O)[nH]nc5c4cc3-c3ccccc3)cc2)CCC1 [MK-2206] (first compound max 10 µM, 7x7, partner max 10 µM) | F

Dear colleague, could you confirm whether CN(C)CCCOc1ccc(-c2ccc3ncc4c(c3c2)n(C2CCOCC2)c(=O)n4C)cn1 [AZD0156] + C[C@@H]1COCCN1C2=NC(=NC(=C2)C3(CC3)[S@](=N)(=O)C)C4=C5C=CNC5=NC=C4 [AZD6738] (first compound max 1 µM, 7x7, partner max 10 µM) has Bliss excess at or above 0.006?
F

Dear colleague, could you confirm whether COc1cccc(OCCCN)c1-c1cc(Nc2cnc(C#N)cn2)n[nH]1 [Prexasertib] + CCc1c2c(nc3ccc(O)cc13)-c1cc3c(c(=O)n1C2)COC(=O)[C@]3(O)CC [SN-38] (first compound max 1 µM, 7x7, partner max 0.3 µM) has Bliss excess at or above 0.006?
T

Dear colleague, could you confirm whether Cc1c2c(nn1C)CSCc1cc(n(C)n1)CSc1cc(c3ccccc3c1)OCCCc1c(C(=O)O)n(C)c3c-2c(Cl)ccc13 [AZD5991] + CC1(C)CCC(CN2CCN(c3ccc(C(=O)NS(=O)(=O)c4ccc(NCC5CCOCC5)c([N+](=O)[O-])c4)c(Oc4cnc5[nH]ccc5c4)c3)CC2)=C(c2ccc(Cl)cc2)C1 [Venetoclax] (first compound max 1 µM, 7x7, partner max 1 µM) has Bliss excess at or above 0.006?
T

Dear colleague, could you confirm whether CN(CCO)CC[C@H](CSc1ccccc1)Nc1ccc(S(=O)(=O)NC(=O)c2ccc(N3CCC([C@@H](O)c4ccccc4-c4ccc(Cl)cc4)CC3)cc2)cc1S(=O)(=O)C(F)(F)F [AZD4320] + Nc1ccn([C@@H]2O[C@H](CO)[C@@H](O)C2(F)F)c(=O)n1 [Gemcitabine] (first compound max 1 µM, 7x7, partner max 0.3 µM) has Bliss excess at or above 0.006?
F
